# Test system: mouse long-term hematopoietic stem cells
# protocol_details: Reproducibility and concentration dependence test: 1-week culture of sorted Hoxb5-tri-mCherry mouse long-term hematopoietic stem cells, flow cytometry
# Assay type: cell-based
# condition_info: Table 4; compound 0.3 μM; day 7 of culture; n=2
measurement_label: mCherry-positive rate (%)
Quick note: give the figure in %, leave out the unit.

1) C[C@H]1[C@@H](F)O[C@@H]2O[C@@]3(C)CC[C@H]4[C@H](C)CC[C@@H]1[C@@]24OO3 [Example 1-1]	0.0
2) CCO[C@H]1O[C@@H]2O[C@@]3(C)CC[C@H]4[C@H](C)CC[C@@H]([C@H]1C)[C@@]24OO3 [Example 1-31, artemotil, reference compound]	96.3
3) C[C@@H]1CC[C@H]2[C@@H](C)C(=O)O[C@@H]3O[C@@]4(C)CC[C@@H]1[C@]32OO4 [Example 1-33, artemisinin, reference compound]	23.5
4) C[C@H]1[C@@H](Oc2ccccc2)O[C@@H]2O[C@@]3(C)CC[C@H]4[C@H](C)CC[C@@H]1[C@@]24OO3 [Example 1-21]	50.0
5) CC(=O)N[C@@H]1O[C@@H]2O[C@@]3(C)CC[C@H]4[C@H](C)CC[C@@H]([C@H]1C)[C@@]24OO3 [Example 1-10]	16.5
6) C[C@@H]1CC[C@H]2[C@@H](C)C(=O)O[C@@H]3O[C@@]4(C)CC[C@@H]1[C@]32O4 [Example 1-34]	18.3
7) C[C@H]1[C@H](C(=O)O)O[C@@H]2O[C@@]3(C)CC[C@H]4[C@H](C)CC[C@@H]1[C@@]24OO3 [Example 1-8]	7.7
8) CC(=O)OCCO[C@@H]1O[C@@H]2O[C@@]3(C)CC[C@H]4[C@H](C)CC[C@@H]([C@H]1C)[C@@]24OO3 [Example 1-27]	94.7
9) C[C@H]1[C@H](C(N)=O)O[C@@H]2O[C@@]3(C)CC[C@H]4[C@H](C)CC[C@@H]1[C@@]24OO3 [Example 1-16]	29.2
10) COCCO[C@H]1O[C@@H]2O[C@@]3(C)CC[C@H]4[C@H](C)CC[C@@H]([C@H]1C)[C@@]24OO3 [Example 1-23]	46.5

Query: Name the reported mCherry-positive rate value associated with the molecule C[C@H]1[C@@H](OC2CCCCC2)O[C@@H]2O[C@@]3(C)CC[C@H]4[C@H](C)CC[C@@H]1[C@@]24OO3 [Example 1-20]
Reply: 0.0

Query: Name the reported mCherry-positive rate value associated with the molecule C[C@H]1[C@@H](OCc2ccccc2)O[C@@H]2O[C@@]3(C)CC[C@H]4[C@H](C)CC[C@@H]1[C@@]24OO3 [Example 1-24]
Reply: 50.0

Query: Name the reported mCherry-positive rate value associated with the molecule C[C@H]1[C@H](Oc2ccccc2)O[C@@H]2O[C@@]3(C)CC[C@H]4[C@H](C)CC[C@@H]1[C@@]24OO3 [Example 1-25]
Reply: 0.0

All figures here come from patent US20230094952A1.
